Each recorded value in this set is attributed to patent US10654847B2.

Measured pEC50 accompanies every entry in the list below.
# TARGET_OR_SYSTEM: mAChR M1 (UniProt P11229)
# EXPERIMENT_SUMMARY: mAChR M1 cell-based functional assay (calcium mobilization, potentiation of EC20 acetylcholine response)
# ASSAY_CONDITIONS: positive allosteric modulation of EC20 ACh response, mAChR M1 CHO-K1 cells; <5 estimated where no plateau
Lab note: jot down the number only; don't add units.

Input: May I ask what pEC50 has been recorded for Cn1cc2c(-c3cc(F)c(CN4Cc5ncccc5C4=O)cc3F)cccc2n1 ?
Output: 5.22

Input: Suppose we examine the compound O=C1c2cccnc2CN1Cc1c(F)cc(-c2ccc3cncn3c2)cc1F ; what pEC50 value has been reported?
Output: 5.88

Input: Item under review: Cn1cc2cc(-c3ccc(CN4Cc5ccccc5S4(=O)=O)c(F)c3)ccc2n1 . Reported pEC50?
Output: 5.60

====

Recorded pEC50 values for a group of compounds are listed next.
# TARGET_OR_SYSTEM: UniProtKB P11229
# Sequence (P11229 1-460): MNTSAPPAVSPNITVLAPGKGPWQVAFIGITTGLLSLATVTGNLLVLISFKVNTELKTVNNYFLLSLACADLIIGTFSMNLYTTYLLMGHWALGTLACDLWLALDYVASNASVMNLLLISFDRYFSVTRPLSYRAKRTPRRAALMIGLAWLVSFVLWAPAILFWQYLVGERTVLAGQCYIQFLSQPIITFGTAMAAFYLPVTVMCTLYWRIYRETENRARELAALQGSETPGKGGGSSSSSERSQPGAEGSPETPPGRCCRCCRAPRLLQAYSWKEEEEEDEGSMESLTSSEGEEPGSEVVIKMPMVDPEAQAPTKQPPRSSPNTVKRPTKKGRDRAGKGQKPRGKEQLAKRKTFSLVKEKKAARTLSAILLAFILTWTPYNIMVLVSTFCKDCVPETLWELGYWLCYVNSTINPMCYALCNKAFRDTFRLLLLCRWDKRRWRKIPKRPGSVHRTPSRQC
# EXPERIMENT_SUMMARY: mAChR M1 cell-based functional assay (calcium mobilization, potentiation of EC20 acetylcholine response)
# ASSAY_CONDITIONS: positive allosteric modulation of EC20 ACh response, mAChR M1 CHO-K1 cells; >10 μM estimated where no plateau; read-out: EC50
Conceptually, pEC50 converts a concentration in mol/L into minus its log10.

Answered cases to consult:
INSERT INTO assay_data (mol, target_or_system, readout_kind, measured_number) VALUES
  ('O=C1c2ncccc2CN1Cc1ccc(-c2cccc3ncccc23)cc1F', 'UniProtKB P11229', 'pEC50', 5.74),
  ('O=C1c2cccnc2CN1Cc1ccc(-c2ccncc2)cc1F', 'UniProtKB P11229', 'pEC50', 5.33),
  ('Cn1cc2cc(-c3ccc(CN4Cc5ncccc5C4=O)cc3)ccc2n1', 'UniProtKB P11229', 'pEC50', 6.30),
  ('Cn1cc2cc(-c3ccc(F)c(CN4Cc5ncccc5C4=O)c3)ccc2n1', 'UniProtKB P11229', 'pEC50', 5.63),
  ('O=C1c2cccnc2CN1Cc1ccc(-c2ccc3cn[nH]c3c2)cc1F', 'UniProtKB P11229', 'pEC50', 6.13),
  ('CN(C)c1ccc(-c2ccc(CN3Cc4cccnc4C3=O)c(Cl)c2)cn1', 'UniProtKB P11229', 'pEC50', 5.73),
  ('Cn1cc2cc(-c3ccc(CN4Cc5ccccc5S4(=O)=O)c(F)c3)ccc2n1', 'UniProtKB P11229', 'pEC50', 5.60),
  ('O=C1c2cccnc2CN1Cc1ccc(-c2cnc3ccccc3c2)cc1F', 'UniProtKB P11229', 'pEC50', 6.41),
  ('O=C1c2cccnc2CN1Cc1ccc(-c2ccc3[nH]ncc3c2)cc1F', 'UniProtKB P11229', 'pEC50', 6.28),
  ('O=C1c2cccnc2CN1Cc1c(F)cc(-c2ccc3c(c2)OCCO3)cc1F', 'UniProtKB P11229', 'pEC50', 6.71);

Next:
Input: Recorded pEC50 for O=C1c2ccccc2CN1Cc1ccc(-c2ccc3cnccc3c2)cc1F , please?
Output: 5.59
